FYI, the data here is from the supplement of paper PMC6522484.

System: HCT116
Protocol description: cell viability (CellTiter-Glo) relative to plate median (fraction of plate median); higher = more viable cells
Settings: 5 µM; treatment time 24 h; reporter: TCF4/Wnt
Measured parameter: cell viability
Answer using only a numeral; do not append any unit.

Example entries and their recorded answers appear below.
{"Molecule": "CCOc1ccc(C(=O)c2ccc(OC)c(O)c2O)cc1", "cell viability": 1.07}
{"Molecule": "CO[C@H]1C[C@H](O[C@H]2[C@H](C)[C@@H](O[C@@H]3O[C@H](C)C[C@H](N(C)C)[C@H]3O)[C@@H](C)C[C@@]3(CO3)C(=O)[C@H](C)[C@@H](O)[C@@H](C)[C@@H](C)OC(=O)[C@@H]2C)O[C@@H](C)[C@@H]1O", "cell viability": 0.91}
{"Molecule": "CCCC(=O)O[C@]1(C(=O)CO)CC[C@H]2[C@@H]3CCC4=CC(=O)CC[C@]4(C)[C@H]3[C@@H](O)C[C@@]21C", "cell viability": 0.958}
{"Molecule": "CC[C@H]1OC(=O)[C@H](C)[C@@H](O[C@H]2C[C@@](C)(OC)[C@@H](O)[C@H](C)O2)[C@H](C)[C@@H](O[C@@H]2O[C@H](C)C[C@H](N(C)C)[C@H]2O)[C@](C)(O)C[C@@H](C)[C@@H]2N[C@@H](COCCOC)O[C@H]([C@H]2C)[C@]1(C)O", "cell viability": 0.991}
{"Molecule": "COc1ccc(CC(=O)c2ccc(O)cc2O)cc1", "cell viability": 0.955}

Q: Provide cell viability value for the following molecule: "CN(C)CCc1c[nH]c2ccc(C[C@H]3COC(=O)N3)cc12"
Ans: 1.08

Q: Look up and state reported cell viability for CC(C)CC1NC(=O)C2CCCN2C1=O (single isomer, unassigned; isomere) [Cyclo(leucylprolyl) (Isomere)]
Ans: 0.94

Q: Give the measured cell viability for OCCOCCN1CCN(C(c2ccccc2)c2ccc(Cl)cc2)CC1 (stereo not drawn)
Ans: 1.07

Q: Please list cell viability recorded for the molecule "Nc1ccc(/N=N/c2ccccc2)c(N)n1"
Ans: 1.07

Q: Output cell viability of "COc1ccc2c(c1)OC[C@@H](Cc1ccc(OC)c(OC)c1)[C@@H]2O"
Ans: 1.02

Q: Given "CC(=O)Nc1nnc(S(N)(=O)=O)s1" , respond with its cell viability.
Ans: 0.907

Q: Fill in cell viability for record "O=c1c(O)cccc2cc(O)c(O)c(O)c12"
Ans: 0.914

Q: Name the recorded cell viability of the item "C(=C\c1ccccc1)/CN1CCN(C(c2ccccc2)c2ccccc2)CC1" in your answer.
Ans: 1.09

Q: Return cell viability (reported value) for this molecule: COc1c(CC(=O)c2cc3c(cc2O)OC(C)(C)C(O)C3)ccc2c1C=CC(C)(C)O2 (stereo not drawn)
Ans: 1.02

Q: Using known records, supply cell viability for CCC(=O)OCC(=O)[C@@]1(OC(=O)CC)[C@H](C)CC2C3C([C@@H](O)C[C@@]21C)[C@@]1(C)C=CC(=O)C=C1C[C@H]3Cl (stereo partly drawn)
Ans: 1.02

Q: Determine from records and report cell viability for "Cc1cc(O)cc(O)c1C(=O)O"
Ans: 1.07

Q: // fetch cell viability given entry NC(CO)C(=O)NNCc1ccc(O)c(O)c1O (stereo not drawn)
Ans: 1.07

Q: Hello, please tell me recorded cell viability for this one: "C[C@@H]1[C@H](O)[C@@H](C)/C=C/C=C/C=C/C=C/C=C/C=C/C=C/[C@H](O[C@@H]2O[C@H](C)[C@@H](O)[C@H](N)[C@@H]2O)C[C@@H]2O[C@](O)(C[C@@H](O)C[C@@H](O)[C@H](O)CC[C@@H](O)C[C@@H](O)CC(=O)O[C@H]1C)C[C@H](O)[C@H]2C(=O)O"
Ans: 1

----------
Test system: SW480
Protocol description: cell viability (CellTiter-Glo) relative to plate median (fraction of plate median); higher = more viable cells
Settings: 5 µM; treatment time 24 h; reporter: 7TFP
Measured parameter: cell viability
API doc: respond with a numeric literal and nothing else, no unit.

Some compounds with known cell viability results, for comparison:
{"Compound": "CC[C@H](c1ccc(O)cc1)[C@@H](CC)c1ccc(O)cc1", "Observed result": 1.04}
{"Compound": "COc1cc(C(=O)N2CCOCC2)cc(OC)c1OC", "Observed result": 1.06}
{"Compound": "C=CC(N)CCC(=O)O (configuration not stated)", "Observed result": 1.06}
{"Compound": "CC1CCC(NC(=O)N(CCCl)N=O)CC1 (configuration not stated)", "Observed result": 1.01}
{"Compound": "CN(C)CCOC(c1ccc(Cl)cc1)c1ccccn1 (configuration not stated)", "Observed result": 0.916}

Q: // fetch cell viability for CCOC(=O)C1=C(C)NC(C)=C(C(=O)OC)C1c1cccc([N+](=O)[O-])c1 (configuration not stated) ; system: SW480
Ans: 0.95

----------
System: SW480
Protocol description: TCF/Wnt firefly luciferase reporter signal relative to plate median (fraction of plate median); higher = higher Wnt reporter signal
Settings: 5 µM; treatment time 24 h; reporter: 7TFP
Param threshold (0.9) applies to TCF/Wnt firefly luciferase reporter signal; output condition met when value >= threshold, condition not met when value < threshold.

{"Molecule smiles": "CC(=O)NS(=O)(=O)c1ccc(N)cc1", "Discrete label": "condition not met"}
{"Molecule smiles": "C=CCc1ccc(O)c(OC)c1", "Discrete label": "condition met"}
{"Molecule smiles": "NC[C@H]1O[C@H](O[C@H]2[C@H](O)[C@@H](O[C@H]3O[C@H](CO)[C@@H](O)[C@H](N)[C@H]3O)[C@H](N)C[C@@H]2N)[C@H](N)C[C@@H]1O", "Discrete label": "condition met"}

Shifting focus to the molecule that follows.
Q: Does "CCC(C)(C)C(=O)O[C@H]1C[C@@H](C)C=C2C=C[C@H](C)[C@H](CC[C@@H]3C[C@@H](O)CC(=O)O3)[C@H]21" have a reported TCF/Wnt firefly luciferase reporter signal of at least 0.9?
Ans: condition not met

----------
Test system: DLD1
Protocol description: TCF/Wnt firefly luciferase reporter signal relative to plate median (fraction of plate median); higher = higher Wnt reporter signal
Settings: 5 µM; treatment time 24 h; reporter: 7TFP
Measured parameter: TCF/Wnt firefly luciferase reporter signal

{"Molecule": "CC[C@@H]1C(=O)OC[C@@H]1Cc1cncn1C", "Observed result": 1.18}
{"Molecule": "C/C1=C\\CC(C)(C)/C=C/CC2(C)OC2CC1 (stereo unspecified)", "Observed result": 1.09}
{"Molecule": "COc1c(N2C[C@@H]3CCCN[C@@H]3C2)c(F)cc2c(=O)c(C(=O)O)cn(C3CC3)c12", "Observed result": 1.1}
{"Molecule": "COc1cc(O)cc(OC)c1OC", "Observed result": 0.941}
{"Molecule": "C[C@@H]1CCCCCCCCC[C@H](OC(=O)CCC(=O)O)C(=O)/C=C/C(=O)O1", "Observed result": 1.17}

Q: For the molecule "Nc1ccc(/N=N/c2ccccc2)c(N)n1" , report TCF/Wnt firefly luciferase reporter signal.
Ans: 1.28

Q: Tell me measured TCF/Wnt firefly luciferase reporter signal for "O=[N+]([O-])c1cccc2c(Br)[nH]nc12" please.
Ans: 0.984

Q: Please supply the value of reported TCF/Wnt firefly luciferase reporter signal for the item "COc1ccc2c(c1)O[C@@H]1COc3cc(OC)c(OC)cc3[C@@H]1C2=O"
Ans: 0.979

Q: Read the entry CC1=CC(=O)CC(C)(C)C1(O)/C=C/C(C)=C\C(=O)O (mixture of isomers) [ABSCISIC ACID (cis,trans; )] and write its reported TCF/Wnt firefly luciferase reporter signal.
Ans: 1.08

Q: Given "COc1ccc(/C=C/C(=O)O)cc1OC" , respond with its TCF/Wnt firefly luciferase reporter signal.
Ans: 1.01

Q: Give reported TCF/Wnt firefly luciferase reporter signal value for "CCN(CC)Cc1cc(Nc2ccnc3cc(Cl)ccc23)ccc1O"
Ans: 0.952

Q: Find the measured TCF/Wnt firefly luciferase reporter signal of COCC1=C(C(=O)OC(C)OC(=O)OC(C)C)N2C(=O)[C@@H](NC(=O)/C(=N\OC)c3csc(N)n3)[C@H]2SC1 (stereo partly specified) and report it.
Ans: 1.01

Q: Give a short answer stating reported TCF/Wnt firefly luciferase reporter signal for "C=C[C@H]1CN2CC[C@H]1C[C@H]2[C@H](O)c1ccnc2ccc(OC)cc12" .
Ans: 1.21

Q: Look up TCF/Wnt firefly luciferase reporter signal of "N[C@@H](Cc1cc(I)c(Oc2ccc(O)c(I)c2)c(I)c1)C(=O)O" and report it.
Ans: 1.01

Q: Give TCF/Wnt firefly luciferase reporter signal for CC(N/C(=N\C#N)Nc1ccncc1)C(C)(C)C (stereo unspecified)
Ans: 0.799

Q: Item "Cc1cnc(NC(=O)C2=C(O)c3ccccc3S(=O)(=O)N2C)s1" : provide TCF/Wnt firefly luciferase reporter signal
Ans: 1.02
